Data origin, for the record: ChEMBL document CHEMBL4373709

Protocol notes: Ratio of drug level in brain to plasma of Sprague-Dawley rat at 30 mg/kg, po measured after 4 to 8 hrs by LC-MS/MS analysis
Format: ADME, organism-based
Experimental setup: brain and plasma, read-out: BPR
Endpoint name: Kp
The response must contain the number and no unit.

Look up and state reported Kp for COc1ccccc1C1CCN(c2nc(C3(F)CC3)nc3ccc(N(C)CCO)cc23)CC1
0.98

====

Measurement target: Neurotensin receptor type 1 (Rattus norvegicus, UniProt P20789)
Sequence (P20789 whole entry): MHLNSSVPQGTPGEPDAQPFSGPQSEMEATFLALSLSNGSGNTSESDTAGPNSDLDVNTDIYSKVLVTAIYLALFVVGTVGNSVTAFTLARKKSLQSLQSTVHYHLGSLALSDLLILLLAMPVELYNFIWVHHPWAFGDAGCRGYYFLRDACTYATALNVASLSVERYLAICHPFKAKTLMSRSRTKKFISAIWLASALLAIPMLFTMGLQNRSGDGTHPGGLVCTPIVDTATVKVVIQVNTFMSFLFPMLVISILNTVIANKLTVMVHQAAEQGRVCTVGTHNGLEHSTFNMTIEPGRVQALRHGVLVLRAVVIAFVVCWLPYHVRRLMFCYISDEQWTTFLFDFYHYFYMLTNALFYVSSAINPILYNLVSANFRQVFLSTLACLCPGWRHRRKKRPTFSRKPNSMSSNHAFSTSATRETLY
Endpoint name: pIC50
Lab note: report pIC50 as minus log10 of the concentration in molar units, number only.

Quote pIC50 with test system Neurotensin receptor type 1 (Rattus norvegicus, UniProt P20789) for COc1cccc(OC)c1-c1cc(C(=O)NC2(C(=O)O)C3CC4CC(C3)CC2C4)nn1-c1ccnc2cc(Cl)ccc12 (stereo unspecified)
7.09

====

Protocol notes: Oral bioavailability in Sprague-Dawley rat at 30 mg/kg by LC-MS/MS analysis
Assay type: ADME, organism-based
Experimental setup: in vivo
Endpoint name: bioavailability (%)
State just the number; it will be interpreted in %.

Look up and state reported bioavailability for COc1ccccc1C1CCN(c2nc(C3(F)CC3)nc3ccc(N(C)CCO)cc23)CC1.Cl
48

====

Measurement target: UniProtKB P30989
Sequence (P30989 whole entry, the tested form may be a part): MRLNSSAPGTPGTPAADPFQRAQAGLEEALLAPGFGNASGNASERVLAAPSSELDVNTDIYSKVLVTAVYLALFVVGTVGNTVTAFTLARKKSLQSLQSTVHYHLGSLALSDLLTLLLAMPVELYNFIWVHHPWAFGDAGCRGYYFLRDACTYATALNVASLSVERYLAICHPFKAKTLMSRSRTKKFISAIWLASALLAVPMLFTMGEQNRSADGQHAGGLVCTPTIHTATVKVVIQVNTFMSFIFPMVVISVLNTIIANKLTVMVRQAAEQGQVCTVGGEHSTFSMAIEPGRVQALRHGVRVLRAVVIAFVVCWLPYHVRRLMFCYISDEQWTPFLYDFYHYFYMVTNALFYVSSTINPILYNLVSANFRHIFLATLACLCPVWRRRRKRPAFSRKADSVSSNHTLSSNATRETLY
Protocol notes: Allosteric modulation of human GFP-fused PK-tagged Gq-coupled NTR1 expressed in CHOK1 cells assessed as induction of NT (8 to 13) peptide-mediated beta-arrestin recruitment measured after 90 mins by pathhunter assay relative to NT (8 to 13) peptide
Format: cell-based
The label depends only on Emax: Satisfied if it is at least 90%, Not satisfied if it is smaller.

# Structure string, Measurement target, Category
data = [
    ("COc1ccccc1C1CCN(c2nc(C3CC3)nc3c(F)cc(N(C)CCO)cc23)CC1", "UniProtKB P30989", "Satisfied"),
    ("COc1ccccc1C1CCN(c2nc(-c3ccccc3)nc3ccc(N(C)CCO)cc23)CC1", "UniProtKB P30989", "Not satisfied"),
    ("CCN(C)c1cccc2nc(C3CC3)nc(N3CCC(c4ccccc4OC)CC3)c12", "UniProtKB P30989", "Not satisfied"),
    ("COc1ccccc1C1CCN(c2nc(C3CC3)nc3ccc(N4CC[C@H](O)C4)cc23)CC1", "UniProtKB P30989", "Not satisfied"),
    ("CCN(C)c1ccc2nc(C3CC3)nc(N3CCC(c4ccccc4OC)CC3)c2c1", "UniProtKB P30989", "Not satisfied"),
    ("COc1ccccc1C1CCN(c2nc(C3(C(F)(F)F)CC3)nc3ccc(N(C)CCO)cc23)CC1", "UniProtKB P30989", "Satisfied"),
]

Is the recorded value of Emax equal to or greater than 90% for this molecule? COc1ccccc1C1CCN(c2nc(C3(C)CC3)nc3ccc(N(C)CCN4CCOCC4)cc23)CC1
Not satisfied

Is the recorded value of Emax equal to or greater than 90% for this molecule? COc1ccccc1C1CCN(c2nc(C3CC3)nc3ccc(N(C)CCO)c(F)c23)CC1
Satisfied

Is the recorded value of Emax equal to or greater than 90% for this molecule? COCCN(C)c1ccc2nc(C3(C)CC3)nc(N3CCC(c4ccccc4OC)CC3)c2c1
Not satisfied

Is the recorded value of Emax equal to or greater than 90% for this molecule? CCCN(C)c1ccc2nc(C3(F)CC3)nc(N3CCC(c4ccccc4OC)CC3)c2c1
Not satisfied

Is the recorded value of Emax equal to or greater than 90% for this molecule? COc1ccccc1C1CCN(c2nc(C3(F)CCC3)nc3ccc(N(C)CCO)cc23)CC1
Satisfied

Is the recorded value of Emax equal to or greater than 90% for this molecule? COCCN(C)c1ccc2nc(C3(F)CC3)nc(N3CCC(c4ccccc4OC)CC3)c2c1
Not satisfied

Is the recorded value of Emax equal to or greater than 90% for this molecule? COc1ccccc1C1CCN(c2nc(C3CCCC3)nc3ccc(N(C)CCO)cc23)CC1
Not satisfied

Is the recorded value of Emax equal to or greater than 90% for this molecule? COc1ccccc1C1CCN(c2nc(C3CCC3)nc3ccc(N(C)CCO)cc23)CC1
Not satisfied

Is the recorded value of Emax equal to or greater than 90% for this molecule? COc1ccccc1C1CCN(c2nc(C3(F)CC3)nc3ccc(N(C)CCN4CCOCC4)cc23)CC1
Satisfied
